- Tested on: johnsongrass (Sorghum halepense, SORHA)
- protocol.notes: Pre-emerge test, greenhouse herbicide activity screening
- Assay type: in vivo
- settings: 63 g ai/ha; pre-emerge; rated 14 days after application; 0 = no damage, 100 = complete death
Threshold rule: Pre-emerge Herbicidal Activity SORHA (phytotoxicity rating, scale 0-100) greater than or equal to 50 is yes; below that, no.

Solved entries (count: 10):
Task: Determine whether measured Pre-emerge Herbicidal Activity SORHA (phytotoxicity rating, scale 0-100) meets or exceeds 50 for COc1c(Cl)cc(F)c(-n2c(=O)cc(C(F)(F)F)n(C)c2=O)c1N=CN(C)C
Result: no

Task: Determine whether measured Pre-emerge Herbicidal Activity SORHA (phytotoxicity rating, scale 0-100) meets or exceeds 50 for Cn1c(C(F)(F)F)cc(=O)n(-c2c(F)cc(Cl)c(OCC#N)c2N)c1=O
Result: yes

Task: Determine whether measured Pre-emerge Herbicidal Activity SORHA (phytotoxicity rating, scale 0-100) meets or exceeds 50 for COc1c(Cl)cc(F)c(-n2c(=O)cc(C(F)(F)F)n(C)c2=O)c1N=C(Cl)C(Cl)(Cl)Cl
Result: no

Task: Determine whether measured Pre-emerge Herbicidal Activity SORHA (phytotoxicity rating, scale 0-100) meets or exceeds 50 for COc1c(Cl)cc(F)c(-n2c(=O)cc(C(F)(F)F)n(C)c2=O)c1NC(=O)C1CCCCC1
Result: no

Task: Determine whether measured Pre-emerge Herbicidal Activity SORHA (phytotoxicity rating, scale 0-100) meets or exceeds 50 for CCOC(=O)C(C)Nc1c(OC)c(Cl)cc(F)c1-n1c(=O)cc(C(F)(F)F)n(C)c1=O (stereo not drawn)
Result: no

Task: Determine whether measured Pre-emerge Herbicidal Activity SORHA (phytotoxicity rating, scale 0-100) meets or exceeds 50 for C=C(C)C(=O)N(C(=O)C(=C)C)c1c(OC)c(Cl)cc(F)c1-n1c(=O)cc(C(F)(F)F)n(C)c1=O
Result: no

Task: Determine whether measured Pre-emerge Herbicidal Activity SORHA (phytotoxicity rating, scale 0-100) meets or exceeds 50 for CCn1c(C(F)(F)F)cc(=O)n(-c2c(F)cc(Cl)c(OC)c2N)c1=O
Result: no

Task: Determine whether measured Pre-emerge Herbicidal Activity SORHA (phytotoxicity rating, scale 0-100) meets or exceeds 50 for COc1c(Cl)cc(F)c(-n2c(=O)cc(C(F)(F)F)n(C)c2=O)c1NC(=O)c1ccc(C)cc1
Result: yes

Task: Determine whether measured Pre-emerge Herbicidal Activity SORHA (phytotoxicity rating, scale 0-100) meets or exceeds 50 for COc1c(Cl)cc(F)c(-n2c(=O)c([N+](=O)[O-])c(C(F)(F)F)n(C)c2=O)c1[N+](=O)[O-]
Result: yes

Task: Determine whether measured Pre-emerge Herbicidal Activity SORHA (phytotoxicity rating, scale 0-100) meets or exceeds 50 for CCOC(=O)CC(=O)Nc1c(OC(=O)CC(=O)OCC)c(Cl)cc(F)c1-n1c(=O)cc(C(F)(F)F)n(C)c1=O
Result: no

More entries:
Task: Determine whether measured Pre-emerge Herbicidal Activity SORHA (phytotoxicity rating, scale 0-100) meets or exceeds 50 for COc1c(Cl)cc(F)c(-n2c(=O)cc(C(F)(F)F)n(C)c2=O)c1NS(=O)(=O)c1ccc(C)cc1
Result: no

Task: Determine whether measured Pre-emerge Herbicidal Activity SORHA (phytotoxicity rating, scale 0-100) meets or exceeds 50 for O=c1cc(C(F)(F)F)[nH]c(=O)n1-c1c(F)cc(Cl)c(O)c1[N+](=O)[O-]
Result: no

Task: Determine whether measured Pre-emerge Herbicidal Activity SORHA (phytotoxicity rating, scale 0-100) meets or exceeds 50 for COc1c(Cl)cc(F)c(-n2c(=O)cc(C(F)(F)F)n(C)c2=O)c1NC(=O)C=C(C)C
Result: yes
